Values were extracted from ChEMBL document CHEMBL3091324.

System: Plasma
Assay: Unbound plasma concentration in NCR/nude mouse xenografted with human HCT116 cells at 100 mg/kg, po measured at 6 hrs by LC-MS analysis
Assay type: ADME, organism-based, HCT-116
Parameters: dose 100 mg/kg, route oral
Conditions: in vivo
PROPERTY: Cp(f) (nM)
Only the number, expressed in nM, is required.

[
  {
    "ENTRY_SMILES": "Fc1cnc2[nH]cc(-c3nnc(N[C@@H](c4cccnc4F)C4CC4)o3)c2c1",
    "Cp(f) / nM": 610
  },
  {
    "ENTRY_SMILES": "Fc1ccccc1[C@H](Nc1nnc(-c2c[nH]c3ncccc23)o1)C1CC1",
    "Cp(f) / nM": 150
  },
  {
    "ENTRY_SMILES": "Fc1cnccc1[C@H](Nc1nnc(-c2c[nH]c3ncccc23)o1)C1CC1",
    "Cp(f) / nM": 2000
  }
]

In: Which Cp(f) value is on record for Fc1ncccc1[C@H](Nc1nnc(-c2c[nH]c3ncccc23)o1)C1CC1 ?
Out: 1300

---

Listing: microsomal CLint of selected molecules
Assay: Intrinsic clearance in rat liver microsomes
Type: ADME
Conditions: read-out: CLH
Give just the numeric value; µL/min/mg need not be written.

In: Look up microsomal CLint for this molecule: Fc1cnccc1[C@H](Nc1nnc(-c2c[nH]c3ncccc23)o1)C1CC1
Out: 45

In: Can you share its microsomal CLint? I mean this molecule: c1ccc(CNc2nnc(-c3ccc4cnccc4c3)o2)cc1
Out: 166

In: What measured microsomal CLint goes with CC(C)(Nc1nnc(-c2c[nH]c3ncccc23)o1)c1ccccc1 ?
Out: 35

---

Target: Cell division cycle 7-related protein kinase (Homo sapiens, UniProt O00311)
Sequence (O00311 whole entry): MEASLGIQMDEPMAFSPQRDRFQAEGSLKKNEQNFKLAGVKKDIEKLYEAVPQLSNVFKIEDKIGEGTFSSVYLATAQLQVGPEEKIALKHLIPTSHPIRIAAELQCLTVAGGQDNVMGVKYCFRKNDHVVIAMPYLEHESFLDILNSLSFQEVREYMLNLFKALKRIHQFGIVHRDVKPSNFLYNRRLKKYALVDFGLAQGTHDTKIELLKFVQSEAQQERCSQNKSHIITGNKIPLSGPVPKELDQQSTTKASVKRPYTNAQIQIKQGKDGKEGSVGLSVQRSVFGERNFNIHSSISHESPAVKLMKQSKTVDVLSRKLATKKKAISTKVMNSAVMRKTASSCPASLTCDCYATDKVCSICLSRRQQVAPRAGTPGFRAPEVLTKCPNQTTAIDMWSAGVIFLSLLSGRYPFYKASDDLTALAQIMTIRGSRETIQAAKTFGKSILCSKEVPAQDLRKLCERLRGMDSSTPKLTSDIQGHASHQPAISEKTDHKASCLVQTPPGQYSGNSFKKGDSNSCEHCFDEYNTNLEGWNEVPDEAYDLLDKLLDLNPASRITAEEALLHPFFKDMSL
Experiment: Inhibition of Cdc7-mediated MCM2 phosphorylation at Ser53 in human HCT116 cells after 14 hrs by immunostaining assay
Entries and their IC50 values follow.
Quick note: give the figure in µM, leave out the unit.

[
  {
    "ENTRY_SMILES": "Fc1ccccc1CNc1nnc(-c2c[nH]c3ncccc23)o1",
    "RECORDED_NUMBER": 1.6
  },
  {
    "ENTRY_SMILES": "Fc1ccccc1[C@H](Nc1nnc(-c2c[nH]c3ncccc23)o1)C1CC1",
    "RECORDED_NUMBER": 0.02
  },
  {
    "ENTRY_SMILES": "CC(C)(Nc1nnc(-c2c[nH]c3ncccc23)o1)c1ccccc1",
    "RECORDED_NUMBER": 6.2
  }
]

Next up:
In: Quick check: IC50 of c1cnc2[nH]cc(-c3nnc(NCc4ccncc4)o3)c2c1 ?
Out: 12

---

Assay: Intrinsic clearance in human liver microsomes
Format: ADME
Details: read-out: CLH
List of microsomal CLint values.

Field: example entries. Status: answers known.
[
  {
    "ENTRY_SMILES": "Fc1ccc2c(-c3nnc(N[C@@H](c4cccnc4F)C4CC4)o3)c[nH]c2n1",
    "RESULT": "< 14 µL/min/mg"
  },
  {
    "ENTRY_SMILES": "c1cncc(CNc2nnc(-c3c[nH]c4ncccc34)o2)c1",
    "RESULT": "< 14 µL/min/mg"
  }
]

In: Give the measured microsomal CLint of c1cnc2[nH]cc(-c3nnc(NCc4ccncc4)o3)c2c1 .
Out: < 14 µL/min/mg

---

Biological target: Cyclin-dependent kinase 2/cyclin E1 (Homo sapiens)
Test: Inhibition of CDK2/cyclin E (unknown origin) using ULight peptide as substrate by HTRF assay
Below, each of the compounds is paired with its reported pIC50 value.
# reply with the number alone; pIC50 is -log10 of concentration in mol/L

As a guide, the following entries are already answered.
[
  {
    "ENTRY_SMILES": "c1cncc(CNc2nnc(-c3c[nH]c4ncccc34)o2)c1",
    "pIC50": 6.21
  },
  {
    "ENTRY_SMILES": "C[C@H](Nc1nnc(-c2c[nH]c3ncccc23)o1)c1ccccc1",
    "pIC50": 7.01
  },
  {
    "ENTRY_SMILES": "C[C@@H](Nc1nnc(-c2c[nH]c3ncccc23)o1)c1ccccc1",
    "pIC50": 6.51
  },
  {
    "ENTRY_SMILES": "Fc1cnccc1[C@H](Nc1nnc(-c2c[nH]c3ncccc23)o1)C1CC1",
    "pIC50": 5.72
  }
]

In: Find the recorded pIC50 belonging to c1ccc(CNc2nnc(-c3ccc4cnccc4c3)o2)cc1 and report it.
Out: 6.46

In: Any idea what its pIC50 is? The compound is Fc1ccc(CNc2nnc(-c3c[nH]c4ncccc34)o2)cc1
Out: 7.01

In: Dear colleague, I am looking for the recorded pIC50 of the following compound: Nc1n[nH]c2ccc(-c3nnc(NCc4ccccc4)o3)cc12
Out: 6.64

---

Target: Cyclin-dependent kinase 1/cyclin B1 (Homo sapiens, UniProt P06493)
Sequence (P06493 whole entry): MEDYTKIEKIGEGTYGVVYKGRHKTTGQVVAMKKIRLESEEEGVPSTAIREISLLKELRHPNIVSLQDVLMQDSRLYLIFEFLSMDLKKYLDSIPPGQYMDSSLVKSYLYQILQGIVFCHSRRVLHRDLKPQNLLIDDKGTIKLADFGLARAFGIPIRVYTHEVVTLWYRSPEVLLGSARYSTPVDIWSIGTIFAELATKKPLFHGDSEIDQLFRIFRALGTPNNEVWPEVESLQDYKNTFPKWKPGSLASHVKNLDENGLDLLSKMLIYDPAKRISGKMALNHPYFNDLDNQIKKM
Sequence (P14635 whole entry, further chain): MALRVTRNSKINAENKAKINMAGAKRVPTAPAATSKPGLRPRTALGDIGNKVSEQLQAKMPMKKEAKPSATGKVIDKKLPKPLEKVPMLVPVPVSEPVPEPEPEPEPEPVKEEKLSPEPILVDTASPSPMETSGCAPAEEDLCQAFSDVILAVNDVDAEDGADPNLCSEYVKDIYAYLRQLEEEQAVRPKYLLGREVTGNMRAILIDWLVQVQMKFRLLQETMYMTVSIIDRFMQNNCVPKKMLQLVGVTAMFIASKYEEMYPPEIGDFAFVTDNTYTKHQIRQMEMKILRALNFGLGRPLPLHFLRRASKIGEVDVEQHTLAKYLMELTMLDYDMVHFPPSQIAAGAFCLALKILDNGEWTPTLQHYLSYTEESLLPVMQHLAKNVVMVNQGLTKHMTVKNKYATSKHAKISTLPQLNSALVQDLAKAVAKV
Assay: Inhibition of CDK1/cyclin B (unknown origin) by HTRF assay
Format: protein-complex assay
pIC50: −log10 of the molar value.
PROPERTY: pIC50

Here are 2 compounds together with their reported answers.
[
  {
    "ENTRY_SMILES": "Fc1ccc2c(-c3nnc(N[C@@H](c4cccnc4F)C4CC4)o3)c[nH]c2n1",
    "SYSTEM_NAME": "Cyclin-dependent kinase 1/cyclin B1 (Homo sapiens, UniProt P06493)",
    "pIC50": "< 4.30"
  },
  {
    "ENTRY_SMILES": "Fc1ccccc1[C@H](Nc1nnc(-c2c[nH]c3ncncc23)o1)C1CC1",
    "SYSTEM_NAME": "Cyclin-dependent kinase 1/cyclin B1 (Homo sapiens, UniProt P06493)",
    "pIC50": "< 4.30"
  }
]

In: What measured pIC50 goes with Fc1cnccc1[C@H](Nc1nnc(-c2c[nH]c3ncccc23)o1)C1CC1 ?
Out: < 4.30

---

Molecular target: Cell division cycle 7-related protein kinase (Homo sapiens, UniProt O00311)
Test: Inhibition of Cdc7-mediated MCM2 phosphorylation at Ser53 in human HCT116 cells after 14 hrs by immunostaining assay
Format: cell-based, HCT-116
Attribute: IC50

In: Given c1ccc(CNc2nnc(-c3nc4ccncc4s3)o2)cc1 , state its recorded IC50.
Out: > 50 µM

In: Could you tell me which IC50 is on file for O=c1[nH]c2ccc(-c3nnc(NCc4ccccc4)o3)cc2o1 ?
Out: > 50 µM

In: # input compound: O=C1Cc2cc(-c3nnc(NCc4ccccc4)o3)ccc2N1 ; wanted: its IC50
Out: > 50 µM

---

Molecular target: Cyclin-dependent kinase 2/cyclin E1 (Homo sapiens, UniProt P24941)
Experiment: Inhibition of CDK2/cyclin E (unknown origin) using ULight peptide as substrate by HTRF assay
Entries annotated with measured pIC50
Note on pIC50: it is the negative log10 of concentration, concentration in mol/L.

[
  {
    "ENTRY_SMILES": "Fc1ccc2c(-c3nnc(N[C@@H](c4cccnc4F)C4CC4)o3)c[nH]c2n1",
    "pIC50": 5.40
  }
]

In: Endpoint output: pIC50 of c1cnc2[nH]cc(-c3nnc(NCc4ccncc4)o3)c2c1 . Value?
Out: 6.46

In: Need pIC50 of Fc1ccccc1[C@H](Nc1nnc(-c2c[nH]c3ncccc23)o1)C1CC1 , thanks.
Out: 6.62
